- Test system: 556581-035-R-J1-PDC complex spheroid viability
- test-method-notes: Anticancer human tumor 556581-035-R-J1-PDC patient-derived ovarian carcinoma cell line growth inhibition
- details: second compound 10 µM; first compound 0.000316 µM; stronger effect = lower value
viability, T/C values, listed per item
endpoint: viability, T/C (%)

compound	experimental-target	meas-value
CC[C@@]1(O)C(=O)OCc2c1cc1n(c2=O)Cc2cc3c(CN(C)C)c(O)ccc3nc2-1 + NC1CC1c1ccc(-c2cccc(O)c2)cc1	556581-035-R-J1-PDC complex spheroid viability	87.9
Cn1ncnc1C1c2n[nH]c(=O)c3cc(F)cc(c23)NC1c1ccc(F)cc1 (stereo not drawn) + NC1CC1c1ccc(-c2cccc(O)c2)cc1	556581-035-R-J1-PDC complex spheroid viability	86.8
CC(C)CC(NC(=O)CNC(=O)c1cc(Cl)ccc1Cl)B1OC(=O)CC(CC(=O)O)(C(=O)O)O1 (stereo not drawn) + NC1CCC(NC2CC2c2ccccc2)CC1	556581-035-R-J1-PDC complex spheroid viability	72.3
CC(C)CC(NC(=O)C(Cc1ccccc1)NC(=O)c1cnccn1)B(O)O (stereo not drawn) + NC1CC1c1ccc(-c2cccc(O)c2)cc1	556581-035-R-J1-PDC complex spheroid viability	1.94
CC(C)CC(NC(=O)CNC(=O)c1cc(Cl)ccc1Cl)B1OC(=O)CC(CC(=O)O)(C(=O)O)O1 (stereo not drawn) + NC1CC1c1ccc(-c2cccc(O)c2)cc1	556581-035-R-J1-PDC complex spheroid viability	85.4
CC(C)CC(NC(=O)C(Cc1ccccc1)NC(=O)c1cnccn1)B(O)O (stereo not drawn) + NC1CCC(NC2CC2c2ccccc2)CC1	556581-035-R-J1-PDC complex spheroid viability	5.64
Cn1ncnc1C1c2n[nH]c(=O)c3cc(F)cc(c23)NC1c1ccc(F)cc1 (stereo not drawn) + NC1CCC(NC2CC2c2ccccc2)CC1	556581-035-R-J1-PDC complex spheroid viability	73.9
CC[C@@]1(O)C(=O)OCc2c1cc1n(c2=O)Cc2cc3c(CN(C)C)c(O)ccc3nc2-1 + NC1CCC(NC2CC2c2ccccc2)CC1	556581-035-R-J1-PDC complex spheroid viability	64.4

====

- System: 556581-035-R-J1-PDC complex spheroid viability
- test-method-notes: Anticancer human tumor 556581-035-R-J1-PDC cell line growth inhibition;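 also: spheroids exposed to agents for seven days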;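 as to viability, T/C: 100% = DMSO vehicle control wells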
- details: second compound 1 µM; first compound 3 µM; stronger effect = lower value

molecule	viability, T/C / %
CCN(c1cc(-c2ccc(CN3CCOCC3)cc2)cc(C(=O)NCc2c(C)cc(C)[nH]c2=O)c1C)C1CCOCC1 + NC1CCC(NC2CC2c2ccccc2)CC1	47.7
Nc1ccccc1NC(=O)c1ccc(CNC(=O)OCc2cccnc2)cc1 + NC1CCC(NC2CC2c2ccccc2)CC1	0.88
CCN(c1cc(-c2ccc(CN3CCOCC3)cc2)cc(C(=O)NCc2c(C)cc(C)[nH]c2=O)c1C)C1CCOCC1 + NC1CC1c1ccc(-c2cccc(O)c2)cc1	30.5
O=C(C=Cc1cccc(S(=O)(=O)Nc2ccccc2)c1)NO + NC1CCC(NC2CC2c2ccccc2)CC1	0.21

====

- Test system: 556581-035-R-J1-PDC complex spheroid viability
- test-method-notes: Anticancer human tumor 556581-035-R-J1-PDC cell line growth inhibition; active = viability on the fitted dose curve at most 10% of control; inactive = the rest;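 also: spheroids exposed to agents for seven days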
- details: second compound 0.1 µM; first compound 0.00949 µM
Possible outcomes: true = active, false = inactive

compound	experimental-target	category-label
NS(=O)(=O)OCC1CC(n2ccc3c(NC4CCc5ccccc54)ncnc32)CC1O (stereo not drawn) + NC1CC1c1ccc(-c2cccc(O)c2)cc1	556581-035-R-J1-PDC complex spheroid viability	false
COc1cc(C2c3cc4c(cc3C(OC3OC5COC(C)OC5C(O)C3O)C3COC(=O)C23)OCO4)cc(OC)c1O (stereo not drawn) + NC1CCC(NC2CC2c2ccccc2)CC1	556581-035-R-J1-PDC complex spheroid viability	false
COc1cc(C2c3cc4c(cc3C(OC3OC5COC(C)OC5C(O)C3O)C3COC(=O)C23)OCO4)cc(OC)c1O (stereo not drawn) + NC1CC1c1ccc(-c2cccc(O)c2)cc1	556581-035-R-J1-PDC complex spheroid viability	false
Nc1ccccc1NC(=O)c1ccc(CNC(=O)OCc2cccnc2)cc1 + NC1CCC(NC2CC2c2ccccc2)CC1	556581-035-R-J1-PDC complex spheroid viability	false
CCN(c1cc(-c2ccc(CN3CCOCC3)cc2)cc(C(=O)NCc2c(C)cc(C)[nH]c2=O)c1C)C1CCOCC1 + NC1CCC(NC2CC2c2ccccc2)CC1	556581-035-R-J1-PDC complex spheroid viability	false
Nc1ncn(C2CC(O)C(CO)S2)c(=O)n1 (stereo not drawn) + NC1CC1c1ccc(-c2cccc(O)c2)cc1	556581-035-R-J1-PDC complex spheroid viability	false
CCc1c2c(nc3ccc(O)cc13)-c1cc3c(c(=O)n1C2)COC(=O)[C@]3(O)CC + NC1CC1c1ccc(-c2cccc(O)c2)cc1	556581-035-R-J1-PDC complex spheroid viability	true
Nc1ccn(C2OC(CO)C(O)C2(F)F)c(=O)n1 (stereo not drawn) + NC1CC1c1ccc(-c2cccc(O)c2)cc1	556581-035-R-J1-PDC complex spheroid viability	false

====

- Tested on: 556581-035-R-J1-PDC complex spheroid viability
- test-method-notes: Anticancer human tumor 556581-035-R-J1-PDC cell line growth inhibition;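 also: spheroids exposed to agents for seven days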
- details: curve of first compound; second compound 1 µM
pIC50: −log10 of the molar value.
endpoint: pIC50

compound	endpoint	meas-value
Cn1ncnc1C1c2n[nH]c(=O)c3cc(F)cc(c23)NC1c1ccc(F)cc1 (stereo not drawn) + NC1CCC(NC2CC2c2ccccc2)CC1	pIC50	< 7.00
O=C(c1cc(Cc2n[nH]c(=O)c3ccccc23)ccc1F)N1CCN(C(=O)C2CC2)CC1 + NC1CC1c1ccc(-c2cccc(O)c2)cc1	pIC50	< 5.00
Nc1ncn(C2CC(O)C(CO)O2)c(=O)n1 (stereo not drawn) + NC1CCC(NC2CC2c2ccccc2)CC1	pIC50	< 6.00

====

IC50 values, listed per item
- Tested on: 556581-035-R-J1-PDC complex spheroid viability
- test-method-notes: Anticancer human tumor 556581-035-R-J1-PDC cell line growth inhibition;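 also: spheroids exposed to agents for seven days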
- details: curve of first compound; second compound 3.16 µM
- Source text: Multicellular complex tumor spheroid response to LSD1 Inhibitor Iadademstat in combination with a variety of drugs and investigational agents in selected tumor cell lines The current study was undertaken to assess response to LSD1 inhibitors in combination with standard-of-care drugs and investigational agents in solid tumor complex spheroid models as well as in the K-562 leukemia. […] Compounds. […] If the clinical Cmax for an agent had not been determined, the highest concentration tested was 10 microM. […]

compound	IC50
O=C(c1cc(Cc2n[nH]c(=O)c3ccccc23)ccc1F)N1CCN(C(=O)C2CC2)CC1 + NC1CCC(NC2CC2c2ccccc2)CC1	> 10000 nM
Nc1ncn(C2CC(O)C(CO)O2)c(=O)n1 (stereo not given) + NC1CCC(NC2CC2c2ccccc2)CC1	> 1000 nM
CC(C)c1c(-c2ccccc2)nc2c(C#N)c[nH]n2c1=O + NC1CC1c1ccc(-c2cccc(O)c2)cc1	> 10000 nM
CC(C)CC(NC(=O)C(Cc1ccccc1)NC(=O)c1cnccn1)B(O)O (stereo not given) + NC1CCC(NC2CC2c2ccccc2)CC1	< 0.316 nM
CC(C)CC(NC(=O)C(Cc1ccccc1)NC(=O)c1cnccn1)B(O)O (stereo not given) + NC1CC1c1ccc(-c2cccc(O)c2)cc1	< 0.316 nM
CCc1c2c(nc3ccc(O)cc13)-c1cc3c(c(=O)n1C2)COC(=O)[C@]3(O)CC + NC1CC1c1ccc(-c2cccc(O)c2)cc1	< 0.949 nM
Cn1ncnc1C1c2n[nH]c(=O)c3cc(F)cc(c23)NC1c1ccc(F)cc1 (stereo not given) + NC1CC1c1ccc(-c2cccc(O)c2)cc1	> 100 nM
CC1COCCN1c1cc(C2(S(C)(=N)=O)CC2)nc(-c2ccnc3[nH]ccc23)n1 (stereo not given) + NC1CCC(NC2CC2c2ccccc2)CC1	> 10000 nM
Nc1ncn(C2CC(O)C(CO)O2)c(=O)n1 (stereo not given) + NC1CC1c1ccc(-c2cccc(O)c2)cc1	> 1000 nM
Cn1ncnc1C1c2n[nH]c(=O)c3cc(F)cc(c23)NC1c1ccc(F)cc1 (stereo not given) + NC1CCC(NC2CC2c2ccccc2)CC1	> 100 nM

====

- Test system: 556581-035-R-J1-PDC complex spheroid viability
- test-method-notes: Anticancer human tumor 556581-035-R-J1-PDC cell line growth inhibition;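 also: spheroids exposed to agents for seven days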;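 as to viability, T/C: 100% = DMSO vehicle control wells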
- details: second compound 3.16 µM; first compound 0.0949 µM; stronger effect = lower value
Threshold-based label: viability, T/C under 50% gives Criterion met, viability, T/C not under 50% gives Criterion not met.

molecule	category-label
O=C(C=Cc1cccc(S(=O)(=O)Nc2ccccc2)c1)NO + NC1CCC(NC2CC2c2ccccc2)CC1	Criterion met
CCN(c1cc(-c2ccc(CN3CCOCC3)cc2)cc(C(=O)NCc2c(C)cc(C)[nH]c2=O)c1C)C1CCOCC1 + NC1CC1c1ccc(-c2cccc(O)c2)cc1	Criterion not met
Nc1ccccc1NC(=O)c1ccc(CNC(=O)OCc2cccnc2)cc1 + NC1CCC(NC2CC2c2ccccc2)CC1	Criterion met
NS(=O)(=O)OCC1CC(n2ccc3c(NC4CCc5ccccc54)ncnc32)CC1O (stereo unspecified) + NC1CCC(NC2CC2c2ccccc2)CC1	Criterion not met
Nc1ncn(C2CC(O)C(CO)S2)c(=O)n1 (stereo unspecified) + NC1CC1c1ccc(-c2cccc(O)c2)cc1	Criterion met
COc1cc(C2c3cc4c(cc3C(OC3OC5COC(C)OC5C(O)C3O)C3COC(=O)C23)OCO4)cc(OC)c1O (stereo unspecified) + NC1CCC(NC2CC2c2ccccc2)CC1	Criterion not met
